Target: hTLR7 (Homo sapiens, UniProt Q9NYK1)
Sequence (Q9NYK1 27-1049): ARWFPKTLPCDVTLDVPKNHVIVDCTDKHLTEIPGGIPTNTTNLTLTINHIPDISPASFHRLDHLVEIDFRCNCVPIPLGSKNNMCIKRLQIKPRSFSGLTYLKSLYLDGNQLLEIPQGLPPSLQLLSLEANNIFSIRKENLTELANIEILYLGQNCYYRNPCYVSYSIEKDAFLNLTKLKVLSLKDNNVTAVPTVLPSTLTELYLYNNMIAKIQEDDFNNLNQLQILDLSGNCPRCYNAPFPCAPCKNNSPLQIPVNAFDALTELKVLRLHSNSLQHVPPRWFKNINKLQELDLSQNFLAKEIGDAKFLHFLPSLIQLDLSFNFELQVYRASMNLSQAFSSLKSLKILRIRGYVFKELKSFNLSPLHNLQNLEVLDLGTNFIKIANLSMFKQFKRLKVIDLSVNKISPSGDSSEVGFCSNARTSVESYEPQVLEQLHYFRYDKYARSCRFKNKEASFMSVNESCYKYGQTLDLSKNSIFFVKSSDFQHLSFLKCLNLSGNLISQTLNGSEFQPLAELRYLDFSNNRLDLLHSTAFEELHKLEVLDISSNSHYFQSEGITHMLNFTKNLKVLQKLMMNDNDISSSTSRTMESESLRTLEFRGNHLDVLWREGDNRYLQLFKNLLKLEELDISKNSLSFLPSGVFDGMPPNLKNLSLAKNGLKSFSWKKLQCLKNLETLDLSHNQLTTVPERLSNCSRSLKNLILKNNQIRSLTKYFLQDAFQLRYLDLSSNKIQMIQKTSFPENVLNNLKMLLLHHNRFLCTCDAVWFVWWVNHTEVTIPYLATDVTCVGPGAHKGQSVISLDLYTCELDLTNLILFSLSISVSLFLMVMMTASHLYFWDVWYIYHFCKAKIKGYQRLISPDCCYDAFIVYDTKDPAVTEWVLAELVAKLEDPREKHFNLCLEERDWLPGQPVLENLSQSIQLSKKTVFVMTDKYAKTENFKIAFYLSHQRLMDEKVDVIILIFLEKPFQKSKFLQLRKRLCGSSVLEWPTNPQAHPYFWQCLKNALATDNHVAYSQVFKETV
Assay: Activation activity test of hTLR7 (HEK-Blue hTLR7 cells, QUANTI-Blue OD650)
Details: 24 hours incubation, read-out: TLR7 (EC50)
pEC50: −log10 of the molar value.
Readout Name: pEC50

Before answering, review these 4 worked examples.
In [3]: df
Out[3]:
                            smiles_notation                           measured_on        result
0  COCCOc1ncc2[nH]c(=O)n(Cc3ccc(CN4CCC5(CC4)COC5)cc3)c2n1  hTLR7 (Homo sapiens, UniProt Q9NYK1)  5.00 to 6.00
1  CCCCNc1ncc2[nH]c(=O)n(Cc3cccc(CN4CCCC4)c3)c2n1  hTLR7 (Homo sapiens, UniProt Q9NYK1)        < 4.00
2  O=c1[nH]c2cnc(OCCC3CC3)nc2n1Cc1cccc(CN2CCCC2)c1  hTLR7 (Homo sapiens, UniProt Q9NYK1)        < 4.00
3  COCCCCOc1ncc2[nH]c(=O)n(Cc3ccc(CN4CCCC4)cc3)c2n1  hTLR7 (Homo sapiens, UniProt Q9NYK1)  5.00 to 6.00

// switching to the query compound
// recorded pEC50 for "COCCOc1nc(F)c2[nH]c(=O)n(Cc3ccc(CN4CCCC4)cc3)c2n1" : 4.00 to 5.00
